Tested on: TDF
Experiment: H1.0 immunofluorescence intensity relative to DMSO (% of DMSO); higher = stronger H1.0 induction, active = 120 or more;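 also: TDF is a line of transformed human dermal fibroblasts of mesenchymal origin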
Conditions: concentration: 10 µM; 24 h
Item-by-item account of H1.0 immunofluorescence intensity
API doc: respond with a numeric literal and nothing else, no unit.

These solved cases illustrate the format of a correct answer.
>  <Compound>
O=C(CCCN1CCC(O)(c2cccc(C(F)(F)F)c2)CC1)c1ccc(F)cc1

>  <Target Entity>
TDF

>  <H1.0 immunofluorescence intensity>
97.3

$$$$
>  <Compound>
CCN(Cc1ccncc1)C(=O)C(CO)c1ccccc1 (stereo not given) [Tropicamide]

>  <Target Entity>
TDF

>  <H1.0 immunofluorescence intensity>
98.4

$$$$

The compound listed as CCOC([O-])=Nc1c[n+](N2CCOCC2)no1 shows H1.0 immunofluorescence intensity equal to 101

The compound listed as OCC1=CC(O)C2C=COC(OC3OC(CO)C(O)C(O)C3O)C12 (stereo not given) shows H1.0 immunofluorescence intensity equal to 99.8

The compound listed as C=CCc1ccccc1OCC(O)CNC(C)C.Cl (stereo not given) [Alprenolol hydrochloride] shows H1.0 immunofluorescence intensity equal to 103

====

System: HCC1569
Assay: H1.0 immunofluorescence intensity relative to DMSO (% of DMSO); higher = stronger H1.0 induction, active = 140 or more
Conditions: concentration: 10 µM; 24 h
Item-by-item account of H1.0 immunofluorescence intensity

These solved cases illustrate the format of a correct answer.
>  <Compound>
CC1c2cccc(O)c2C(O)=C2C(=O)C3(O)C(O)=C(C(N)=O)C(=O)C(N(C)C)C3C(O)C21 (stereo unspecified)

>  <Target Entity>
HCC1569

>  <Endpoint Value>
115 (inactive)

$$$$
>  <Compound>
COc1c2ccoc2cc2oc(C)cc(=O)c12

>  <Target Entity>
HCC1569

>  <Endpoint Value>
82.3 (inactive)

$$$$
>  <Compound>
C=CCCCCCCCCC(=O)O

>  <Target Entity>
HCC1569

>  <Endpoint Value>
105 (inactive)

$$$$
>  <Compound>
CCCCC=CCCCCCCCCC(=O)O [10(E)-Pentadecenoic acid]

>  <Target Entity>
HCC1569

>  <Endpoint Value>
101 (inactive)

$$$$

The compound listed as O=C1CC(c2ccc(O)c(O)c2)Oc2c1ccc(OC1OC(CO)C(O)C(O)C1O)c2O (stereo unspecified) shows H1.0 immunofluorescence intensity equal to 99.9 (inactive)

The compound listed as CN[C@H](CC(=O)O)C(=O)O shows H1.0 immunofluorescence intensity equal to 98.8 (inactive)

The compound listed as CCOC(=O)C=Cc1ccc(O)c(OC)c1 shows H1.0 immunofluorescence intensity equal to 93.6 (inactive)

The compound listed as CCCCCC(O)C=CC1C(O)CC2OC(=CCCCC(=O)[O-])CC21.[Na+] (stereo unspecified) shows H1.0 immunofluorescence intensity equal to 98.3 (inactive)

The compound listed as CNC1C(O)C(NC)C2OC3(O)C(=O)CC(C)OC3OC2C1O.Cl.Cl (stereo unspecified) [Spectinomycin.2HCl] shows H1.0 immunofluorescence intensity equal to 100 (inactive)

The compound listed as O=C(O)CC/C=C\C[C@H]1CO[C@@H](c2ccccc2Cl)O[C@H]1c1ccccc1O shows H1.0 immunofluorescence intensity equal to 108 (inactive)

The compound listed as CC(C[N+](C)(C)C)OC(N)=O (stereo unspecified) shows H1.0 immunofluorescence intensity equal to 108 (inactive)

The compound listed as CCCCCC(O)C=CC1C=CC(=O)C1CC=CCCCC(=O)O (stereo unspecified) shows H1.0 immunofluorescence intensity equal to 104 (inactive)

The compound listed as O=C(Nc1ccc(Cl)cc1)c1ccccc1NCc1ccncc1 shows H1.0 immunofluorescence intensity equal to 98.1 (inactive)

The compound listed as CC12CCC3c4ccc(O)cc4CCC3C1CC(O)C2O (stereo unspecified) shows H1.0 immunofluorescence intensity equal to 113 (inactive)

The compound listed as O=C(O)CCCC(O)C=CC=CC=CC(O)CC=CCCCCCO (stereo unspecified) [20-Hydroxy-leukotriene B4] shows H1.0 immunofluorescence intensity equal to 108 (inactive)

The compound listed as Cn1c(=O)c2[nH]cnc2n(C)c1=O.Cn1c(=O)c2[nH]cnc2n(C)c1=O.NCCN shows H1.0 immunofluorescence intensity equal to 93.8 (inactive)
